# difference annotations
Test system: H1299
Experiment: difference in mean normalized H2B-mRuby nuclear fluorescence intensity relative to DMSO control (normalized intensity difference (DMSO = 0)); higher = stronger increase in transgene reporter fluorescence
Conditions: concentration: 5; 24 h
Reply with the value as a number alone.

[[record]]
molecule = "O=c1[nH]cc(F)c(=O)[nH]1 (concentration unit: uM)"
measured_value = -0.107

[[record]]
molecule = "C=CCn1c(=O)c2cnc(Nc3ccc(N4CCN(C)CC4)cc3)nc2n1-c1cccc(C(C)(C)O)n1 (concentration unit: uM)"
measured_value = -0.0335

[[record]]
molecule = "O=C(/C=C/c1cccc(S(=O)(=O)Nc2ccccc2)c1)NO (concentration unit: uM)"
measured_value = 1.19

[[record]]
molecule = "CC(=O)c1c(C)c2cnc(Nc3ccc(N4CCNCC4)cn3)nc2n(C2CCCC2)c1=O (concentration unit: uM)"
measured_value = -0.0957

[[record]]
molecule = "COc1cc2ncnc(Nc3ccc(F)c(Cl)c3)c2cc1OCCCN1CCOCC1 (concentration unit: uM)"
measured_value = -0.00342


Lab note: measured difference of COc1cc2nccc(Oc3ccc(NC(=O)C4(C(=O)Nc5ccc(F)cc5)CC4)cc3)c2cc1OC (concentration unit: uM) was 0.0398

Lab note: measured difference of O=C(NOC[C@H](O)CO)c1ccc(F)c(F)c1Nc1ccc(I)cc1F (concentration unit: uM) was -0.199

Lab note: measured difference of CNC(=O)c1ccccc1Sc1ccc2c(/C=C/c3ccccn3)n[nH]c2c1 (concentration unit: uM) was 0.159

Lab note: measured difference of C[C@@H](Oc1cc(-c2cnn(C3CCNCC3)c2)cnc1N)c1c(Cl)ccc(F)c1Cl (concentration unit: uM) was 0.194

Lab note: measured difference of N#CC[C@H](C1CCCC1)n1cc(-c2ncnc3[nH]ccc23)cn1 (concentration unit: uM) was -0.0185

---

# difference annotations
Tested on: H1299
Assay: difference in mean normalized H2B-mRuby nuclear fluorescence intensity relative to DMSO control (normalized intensity difference (DMSO = 0)); higher = stronger increase in transgene reporter fluorescence
Conditions: concentration: 1; 24 h

Please review the following examples before continuing.
[[record]]
molecule = "CNC(=O)c1cc(Oc2ccc(NC(=O)Nc3ccc(Cl)c(C(F)(F)F)c3)cc2)ccn1 (concentration unit: uM)"
target_system = "H1299"
property_measured = "difference"
measured_value = 0.0342

[[record]]
molecule = "C=CCn1c(=O)c2cnc(Nc3ccc(N4CCN(C)CC4)cc3)nc2n1-c1cccc(C(C)(C)O)n1 (concentration unit: uM)"
target_system = "H1299"
property_measured = "difference"
measured_value = 0.027


Lab note: measured difference of COc1cc2nccc(Oc3ccc(NC(=O)C4(C(=O)Nc5ccc(F)cc5)CC4)cc3)c2cc1OC (concentration unit: uM) was -0.122

Lab note: measured difference of O=C(/C=C/c1cccc(S(=O)(=O)Nc2ccccc2)c1)NO (concentration unit: uM) was 0.491

---

# difference annotations
Test system: H1299
Experiment: difference in mean normalized H2B-mRuby nuclear fluorescence intensity relative to DMSO control (normalized intensity difference (DMSO = 0)); higher = stronger increase in transgene reporter fluorescence
Conditions: concentration: 10; 24 h
Reply with the value as a number alone.

Please review the following examples before continuing.
[[record]]
compound = "O=C(c1cc(Cc2n[nH]c(=O)c3ccccc23)ccc1F)N1CCN(C(=O)C2CC2)CC1 (concentration unit: uM)"
measured_value = 0.0357

[[record]]
compound = "COc1cc([C@@H]2c3cc4c(cc3[C@@H](O[C@@H]3O[C@@H]5CO[C@@H](C)O[C@H]5[C@H](O)[C@H]3O)[C@H]3COC(=O)[C@H]23)OCO4)cc(OC)c1O (concentration unit: uM)"
measured_value = 0.153

[[record]]
compound = "O=c1[nH]cc(F)c(=O)[nH]1 (concentration unit: uM)"
measured_value = -0.0707

[[record]]
compound = "CO[C@H]1C[C@@H]2CC[C@@H](C)[C@@](O)(O2)C(=O)C(=O)N2CCCC[C@H]2C(=O)O[C@H]([C@H](C)C[C@@H]2CC[C@@H](O)[C@H](OC)C2)CC(=O)[C@H](C)/C=C(\\C)[C@@H](O)[C@@H](OC)C(=O)[C@H](C)C[C@H](C)/C=C/C=C/C=C/1C (concentration unit: nM)"
measured_value = 0.177


Then there is this compound:
Tested on H1299, the item CNC(=O)c1ccccc1Sc1ccc2c(/C=C/c3ccccn3)n[nH]c2c1 (concentration unit: uM) showed difference equal to 0.14

// provenance: the supplement of paper PMC11026393
